The measured values listed here are drawn from patent US10669242B2.

molecular target: recombinant glucosyltransferase domain of C. difficile Toxin B/TcdB (Clostridioides difficile); construct: 6-His (C); purchased R&D Systems 6246-GT; experiment: biochemical
pIC50: −log10 of the molar value.
What pIC50 was measured for each of the following?

Would you please look over these solved cases?
>>> assay_value("COc1ccc(NC(=O)c2ccc(S(=O)(=O)N3Cc4ccc(Cl)cc4NC(=O)[C@@H]3Cc3ccccn3)cc2)nc1 [Example 19d]")
"6.00 to 7.00"
>>> assay_value("O=C(O)c1c(Cl)cc(CN2C(=O)c3ccc(Cl)cc3NC(=O)[C@H]2Cc2ccccn2)cc1Cl [Example 7c]")
"5.00 to 6.00"
>>> assay_value("O=C(Nc1ccc(CN2C(=O)c3ccc(Cl)cc3NC(=O)[C@H]2Cc2ccccn2)cc1)c1cc(Cl)ccn1 [Example 26h]")
"6.00 to 7.00"

For every item in the list below, what is its measured pIC50?
1. Cc1cnc(NC(=O)c2ccc(CN3C(=O)c4ccc(Cl)cc4NC(=O)[C@H]3C)cc2)cn1 [Example 4bi]
2. Cc1ccnc(NC(=O)c2ccc(CN3C(=O)c4ccc(Cl)cc4NC(=O)[C@H]3Cc3cccnc3)cc2)c1 [Example 4s]
3. CC1(C)CN(C(=O)c2ccc(CN3C(=O)c4ccc(Cl)cc4NC(=O)[C@H]3Cc3ccccn3)cc2Cl)c2ncccc21 [Example 4as]
4. O=C(Nc1ccccn1)c1ccc(CN2C(=O)c3ccc(Cl)cc3NC(=O)[C@H]2Cc2ccccc2)cc1 [Example 4h]

A)
1. 6.00 to 7.00
2. > 7.00
3. > 7.00
4. > 7.00

====

biological target: recombinant glucosyltransferase domain of C. difficile Toxin B/TcdB (Clostridioides difficile); construct: 6-His (C); purchased R&D Systems 6246-GT; assay: biochemical
REPORTED_METRIC: IC50

>>> assay_value("C[C@@H]1C(=O)Nc2cc(Cl)ccc2C(=O)N1Cc1ccc(C(=O)Nc2cc3ccccc3cn2)cc1")
"100 to 999 nM"
>>> assay_value("O=C(Nc1ccc(CN2C(=O)c3ccc(Cl)cc3NC(=O)[C@H]2Cc2ccccn2)cc1)c1nccs1 [Example 27e]")
"100 to 999 nM"
>>> assay_value("O=C(Nc1ccc(CN2C(=O)c3ccc(Cl)cc3NC(=O)[C@H]2Cc2ccccn2)cc1)c1cscn1 [Example 27f]")
"< 100 nM"

Q) # IC50 lookup, item `O=C(O)c1ccc(CN2C(=O)c3ccc(Cl)cc3NC(=O)[C@H]2Cc2ccccn2)cc1-c1ccc(F)cc1`
A) 100 to 999 nM

====

target: recombinant glucosyltransferase domain of C. difficile Toxin B/TcdB (Clostridioides difficile, UniProt P18177); construct: 6-His (C); purchased R&D Systems 6246-GT; assay: biochemical
pIC50: −log10 of the molar value.
What pIC50 was measured for each of the following?

For every item in the list below, what is its measured pIC50?
1. O=C1Nc2cc(Cl)ccc2C(=O)N(Cc2ccc(C(=O)N3CCc4cccnc43)c(Cl)c2)[C@@H]1Cc1ccccn1
2. O=C(Nc1ccccn1)c1ccc(CN2C(=O)c3ccncc3NC(=O)[C@H]2Cc2cccnc2)cc1 [Example 35n]
3. COc1cnc(NC(=O)[C@H]2CC[C@H](CN3C(=O)c4ccc(Cl)cc4NC(=O)[C@H]3Cc3ccccn3)CC2)nc1
4. O=C(Nc1ccc(N2CCOCC2)cn1)c1ccc(CN2C(=O)c3ccc(Cl)cc3NC(=O)[C@H]2Cc2ccccn2)cc1
5. O=C1Nc2cc(Cl)ccc2C(=O)N(CC2CCN(C(=O)Nc3ccccn3)CC2)[C@@H]1Cc1ccccn1 [Example 42a]
6. O=C1Nc2cc(Cl)ccc2C(=O)N(Cc2ccc3c(c2)CN(c2ccccn2)C3=O)[C@@H]1Cc1ccccn1 [Example 49d]
7. O=C(Nc1cccc(CN2C(=O)c3ccc(Cl)cc3NC(=O)[C@H]2Cc2ccccn2)c1)c1ccccn1 [Example 28a]

A)
1. > 7.00
2. 6.00 to 7.00
3. > 7.00
4. > 7.00
5. 5.00 to 6.00
6. 6.00 to 7.00
7. > 7.00

====

target: C. difficile full-length toxin TcdA (Clostridioides difficile, UniProt P16154); construct: C. difficile full-length toxins (TcdA or TcdB); experiment: cell-based
Sequence (P16154 whole entry, looked up): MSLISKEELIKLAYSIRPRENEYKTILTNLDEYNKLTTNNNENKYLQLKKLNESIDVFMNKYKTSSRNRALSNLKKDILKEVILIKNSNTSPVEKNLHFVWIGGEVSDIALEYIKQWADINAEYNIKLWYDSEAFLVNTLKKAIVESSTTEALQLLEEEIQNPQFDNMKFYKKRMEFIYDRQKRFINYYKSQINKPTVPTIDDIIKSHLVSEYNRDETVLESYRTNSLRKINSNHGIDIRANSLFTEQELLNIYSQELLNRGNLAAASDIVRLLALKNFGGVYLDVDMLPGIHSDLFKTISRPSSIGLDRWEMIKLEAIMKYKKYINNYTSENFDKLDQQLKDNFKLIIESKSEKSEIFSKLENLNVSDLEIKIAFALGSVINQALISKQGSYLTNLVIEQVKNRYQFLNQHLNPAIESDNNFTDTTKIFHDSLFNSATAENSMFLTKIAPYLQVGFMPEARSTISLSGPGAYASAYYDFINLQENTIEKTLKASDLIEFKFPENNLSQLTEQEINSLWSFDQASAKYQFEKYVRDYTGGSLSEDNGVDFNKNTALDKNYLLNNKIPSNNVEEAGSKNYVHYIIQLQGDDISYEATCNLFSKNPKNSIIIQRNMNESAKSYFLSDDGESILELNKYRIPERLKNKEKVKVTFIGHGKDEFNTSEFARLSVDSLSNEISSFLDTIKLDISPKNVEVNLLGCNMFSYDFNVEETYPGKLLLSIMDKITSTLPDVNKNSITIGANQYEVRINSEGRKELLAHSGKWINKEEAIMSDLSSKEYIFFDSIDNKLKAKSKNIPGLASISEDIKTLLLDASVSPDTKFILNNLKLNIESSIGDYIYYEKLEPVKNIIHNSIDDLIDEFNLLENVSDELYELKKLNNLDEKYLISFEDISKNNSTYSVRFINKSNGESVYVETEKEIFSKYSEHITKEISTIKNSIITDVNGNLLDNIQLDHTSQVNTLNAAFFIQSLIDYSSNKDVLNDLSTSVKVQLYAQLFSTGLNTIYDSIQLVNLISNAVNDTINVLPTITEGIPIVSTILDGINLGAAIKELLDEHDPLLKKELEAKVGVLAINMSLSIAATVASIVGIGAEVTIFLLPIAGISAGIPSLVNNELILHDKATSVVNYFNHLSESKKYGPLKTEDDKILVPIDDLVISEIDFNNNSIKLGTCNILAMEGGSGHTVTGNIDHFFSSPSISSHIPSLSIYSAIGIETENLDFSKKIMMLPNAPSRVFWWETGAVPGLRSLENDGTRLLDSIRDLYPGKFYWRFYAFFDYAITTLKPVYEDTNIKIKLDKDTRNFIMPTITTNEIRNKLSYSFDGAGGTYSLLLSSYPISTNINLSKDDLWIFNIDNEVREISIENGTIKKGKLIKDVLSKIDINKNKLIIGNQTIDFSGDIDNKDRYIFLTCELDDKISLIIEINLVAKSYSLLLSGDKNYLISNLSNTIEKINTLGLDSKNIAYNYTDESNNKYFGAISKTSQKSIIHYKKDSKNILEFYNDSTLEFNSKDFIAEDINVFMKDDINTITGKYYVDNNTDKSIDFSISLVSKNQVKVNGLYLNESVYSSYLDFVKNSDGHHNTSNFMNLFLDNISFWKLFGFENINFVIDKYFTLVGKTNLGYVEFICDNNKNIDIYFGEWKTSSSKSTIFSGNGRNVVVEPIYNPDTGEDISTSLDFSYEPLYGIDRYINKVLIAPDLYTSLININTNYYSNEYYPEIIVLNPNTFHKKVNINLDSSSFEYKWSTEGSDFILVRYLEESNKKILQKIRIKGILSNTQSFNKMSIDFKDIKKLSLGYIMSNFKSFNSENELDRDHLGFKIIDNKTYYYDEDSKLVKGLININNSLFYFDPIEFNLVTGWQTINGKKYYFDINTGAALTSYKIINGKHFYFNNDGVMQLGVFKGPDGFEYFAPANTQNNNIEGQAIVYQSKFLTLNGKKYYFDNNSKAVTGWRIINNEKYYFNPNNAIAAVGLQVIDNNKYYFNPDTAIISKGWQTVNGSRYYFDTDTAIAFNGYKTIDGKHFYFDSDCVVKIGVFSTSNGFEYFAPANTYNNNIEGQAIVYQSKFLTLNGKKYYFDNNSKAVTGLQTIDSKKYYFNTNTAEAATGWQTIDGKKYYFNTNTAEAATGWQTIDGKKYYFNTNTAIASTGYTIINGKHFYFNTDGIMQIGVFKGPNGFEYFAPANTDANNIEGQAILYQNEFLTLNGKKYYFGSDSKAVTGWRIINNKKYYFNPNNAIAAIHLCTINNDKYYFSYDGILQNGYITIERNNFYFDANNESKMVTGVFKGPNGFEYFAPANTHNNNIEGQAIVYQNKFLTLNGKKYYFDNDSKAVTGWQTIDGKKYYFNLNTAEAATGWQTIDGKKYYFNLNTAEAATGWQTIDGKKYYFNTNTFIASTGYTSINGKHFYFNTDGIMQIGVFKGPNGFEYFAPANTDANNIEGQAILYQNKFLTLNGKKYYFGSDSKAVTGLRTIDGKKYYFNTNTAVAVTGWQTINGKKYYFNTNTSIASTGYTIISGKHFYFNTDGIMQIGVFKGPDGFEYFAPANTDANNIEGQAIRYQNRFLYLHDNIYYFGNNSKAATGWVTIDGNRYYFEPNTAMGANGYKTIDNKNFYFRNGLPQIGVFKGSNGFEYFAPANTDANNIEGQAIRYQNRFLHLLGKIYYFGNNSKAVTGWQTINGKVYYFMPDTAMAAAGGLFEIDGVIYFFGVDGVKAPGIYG
REPORTED_METRIC: IC50

Would you please look over these solved cases?
>>> assay_value("Cc1cc(CN2C(=O)c3ccc(Cl)cc3NC(=O)[C@H]2Cc2ccccn2)ccc1C(=O)Nc1ccc(C(F)(F)F)cn1 [Example 5al]")
"1 to 10 µM"
>>> assay_value("COc1cnc(NC(=O)c2ccc(CN3C(=O)c4ccc(Cl)cc4NC(=O)[C@H]3Cc3ccccn3)cc2Cl)cn1 [Example 4ci]")
"1 to 10 µM"
>>> assay_value("O=C(c1ccccn1)c1ccc(CN2C(=O)c3ccc(Cl)cc3NC(=O)[C@H]2Cc2ccccn2)cc1Cl [Example 11g]")
"> 10 µM"
>>> assay_value("COc1cnc(NC(=O)c2ccc(CN3C(=O)c4ccc(Cl)cc4NC(=O)[C@H]3Cc3ccccn3)cc2Cl)nc1 [Example 5ab]")
"1 to 10 µM"
>>> assay_value("COc1cc(CN2C(=O)c3ccc(Cl)cc3NC(=O)[C@H]2Cc2ccccn2)ccc1C(=O)Nc1ccc(C)cn1 [Example 4cm]")
"> 10 µM"

For every item in the list below, what is its measured IC50?
1. COc1cnc(NC(=O)c2ccc(CN3C(=O)c4ccc(Cl)cc4NC(=O)[C@H]3Cc3ccccn3)cc2C)cn1 [Example 5af]
2. O=C1Nc2cc(Cl)ccc2C(=O)N(Cc2ccc(N3CCc4cccnc4C3=O)cc2)[C@@H]1Cc1ccccn1 [Example 49b]

A)
1. 1 to 10 µM
2. > 10 µM

====

What pIC50 was measured for each of the following?
molecular target: recombinant glucosyltransferase domain of C. difficile Toxin B/TcdB (Clostridioides difficile); construct: 6-His (C); purchased R&D Systems 6246-GT; assay: biochemical
pIC50: −log10 of the molar value.

Would you please look over these solved cases?
>>> assay_value("O=C(O)c1ccc(CN2C(=O)c3ccc(Cl)cc3NC(=O)[C@H]2Cc2ccccn2)cc1NC(=O)C1CCCCC1 [Example 22c]")
"6.00 to 7.00"
>>> assay_value("O=C1Nc2cc(Cl)ccc2C(=O)N(Cc2ccc(C(=O)N3CCc4cccnc43)c(F)c2)[C@@H]1Cc1ccccn1")
"6.00 to 7.00"
>>> assay_value("O=C1Nc2cc(Cl)ccc2C(=O)N(C[C@H]2CC[C@H](C(=O)Nc3ccccn3)CC2)[C@@H]1Cc1cccnc1 [Example 35l]")
"6.00 to 7.00"

As a next step, examine the compound that follows.
Q) # pIC50 lookup, item O=C1Nc2cc(Cl)ccc2C(=O)N(Cc2ccc(C(O)c3ccccn3)cc2)[C@@H]1Cc1ccccn1 (stereo partly shown) [Example 51a]
A) 5.00 to 6.00

====

biological target: recombinant glucosyltransferase domain of C. difficile Toxin B/TcdB (Clostridioides difficile, UniProt P18177); construct: 6-His (C); purchased R&D Systems 6246-GT; test: biochemical; settings: read-out: TcdB UDP-Glucose hydrolysis activity (IC50, coded); UDP-Glucose hydrolysis assay, fluorescence polarization
pIC50: −log10 of the molar value.
REPORTED_METRIC: pIC50

>>> assay_value("O=C1Nc2cc(Cl)ccc2C(=O)N(C[C@H]2CC[C@H](C(=O)c3cccn4ccnc34)CC2)[C@@H]1Cc1ccccn1 [Example 34b]")
"> 7.00"

As a next step, examine the compound that follows.
Q) # pIC50 lookup, item COc1ccc(NC(=O)C2CCC(CN3C(=O)c4ccc(Cl)cc4NC(=O)[C@H]3Cc3ccccn3)CC2)nc1 (some centres unmarked) [Example 4bz]
A) > 7.00

====

molecular target: C. difficile full-length toxin TcdB (Clostridioides difficile); construct: C. difficile full-length toxins (TcdA or TcdB); assay: cell-based
Sequence (P18177 2-2366 limits assumed): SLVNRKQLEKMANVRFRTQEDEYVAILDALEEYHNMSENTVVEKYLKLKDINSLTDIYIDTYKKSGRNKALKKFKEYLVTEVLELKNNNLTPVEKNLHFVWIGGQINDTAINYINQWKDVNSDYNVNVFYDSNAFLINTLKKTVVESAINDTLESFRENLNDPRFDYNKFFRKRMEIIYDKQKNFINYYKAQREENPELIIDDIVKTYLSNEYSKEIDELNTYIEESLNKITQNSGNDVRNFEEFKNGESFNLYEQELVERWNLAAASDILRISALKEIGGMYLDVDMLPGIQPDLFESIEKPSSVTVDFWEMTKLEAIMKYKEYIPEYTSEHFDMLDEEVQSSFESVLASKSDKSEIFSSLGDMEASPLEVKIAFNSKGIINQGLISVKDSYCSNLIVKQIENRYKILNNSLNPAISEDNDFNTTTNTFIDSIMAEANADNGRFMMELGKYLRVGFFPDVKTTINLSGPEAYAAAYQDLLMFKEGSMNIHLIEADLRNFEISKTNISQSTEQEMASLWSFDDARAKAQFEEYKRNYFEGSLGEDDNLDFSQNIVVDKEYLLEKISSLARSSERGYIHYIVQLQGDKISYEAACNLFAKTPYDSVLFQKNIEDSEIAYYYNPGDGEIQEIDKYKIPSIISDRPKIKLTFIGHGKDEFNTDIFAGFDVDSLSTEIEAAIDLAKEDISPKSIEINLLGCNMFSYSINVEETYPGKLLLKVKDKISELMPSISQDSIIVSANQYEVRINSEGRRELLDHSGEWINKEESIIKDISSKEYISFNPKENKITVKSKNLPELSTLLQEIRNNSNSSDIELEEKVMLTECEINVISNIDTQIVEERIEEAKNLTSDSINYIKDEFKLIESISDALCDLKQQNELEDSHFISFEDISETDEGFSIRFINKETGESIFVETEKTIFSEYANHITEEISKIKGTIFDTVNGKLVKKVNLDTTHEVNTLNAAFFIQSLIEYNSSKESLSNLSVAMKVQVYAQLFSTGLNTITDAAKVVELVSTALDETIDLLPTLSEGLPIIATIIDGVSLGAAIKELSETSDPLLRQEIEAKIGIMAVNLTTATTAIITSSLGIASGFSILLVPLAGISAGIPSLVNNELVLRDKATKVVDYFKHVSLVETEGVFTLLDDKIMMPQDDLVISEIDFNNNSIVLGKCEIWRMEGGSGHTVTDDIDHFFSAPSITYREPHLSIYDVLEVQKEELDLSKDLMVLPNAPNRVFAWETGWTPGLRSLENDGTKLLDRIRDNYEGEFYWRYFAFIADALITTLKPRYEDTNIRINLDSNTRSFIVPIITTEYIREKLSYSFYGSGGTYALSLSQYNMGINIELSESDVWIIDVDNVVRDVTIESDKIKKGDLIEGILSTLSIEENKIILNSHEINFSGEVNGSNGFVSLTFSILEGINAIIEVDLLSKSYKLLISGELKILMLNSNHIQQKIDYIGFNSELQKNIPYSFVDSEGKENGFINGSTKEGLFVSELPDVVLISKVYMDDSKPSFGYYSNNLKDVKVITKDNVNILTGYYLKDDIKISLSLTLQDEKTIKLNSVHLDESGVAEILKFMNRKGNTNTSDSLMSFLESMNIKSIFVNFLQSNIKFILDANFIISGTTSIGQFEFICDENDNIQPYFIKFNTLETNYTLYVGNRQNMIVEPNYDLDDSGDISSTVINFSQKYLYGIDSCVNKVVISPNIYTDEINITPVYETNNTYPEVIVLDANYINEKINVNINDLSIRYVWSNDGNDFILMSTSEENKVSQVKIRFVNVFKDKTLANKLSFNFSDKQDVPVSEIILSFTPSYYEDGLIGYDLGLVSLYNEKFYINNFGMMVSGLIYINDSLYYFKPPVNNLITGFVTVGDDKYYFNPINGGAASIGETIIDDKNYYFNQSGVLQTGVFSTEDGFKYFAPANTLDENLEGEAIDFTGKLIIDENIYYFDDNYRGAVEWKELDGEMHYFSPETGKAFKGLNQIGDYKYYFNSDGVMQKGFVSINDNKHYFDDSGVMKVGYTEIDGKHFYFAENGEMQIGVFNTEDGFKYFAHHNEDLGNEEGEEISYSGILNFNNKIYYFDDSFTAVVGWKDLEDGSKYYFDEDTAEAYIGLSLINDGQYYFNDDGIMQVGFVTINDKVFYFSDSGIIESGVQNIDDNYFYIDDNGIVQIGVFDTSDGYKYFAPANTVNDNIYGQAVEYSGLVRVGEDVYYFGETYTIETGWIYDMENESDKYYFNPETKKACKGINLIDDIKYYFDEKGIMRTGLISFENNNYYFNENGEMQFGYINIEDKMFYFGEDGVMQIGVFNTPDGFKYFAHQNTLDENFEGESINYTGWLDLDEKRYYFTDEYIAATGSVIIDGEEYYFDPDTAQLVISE
What IC50 was measured for each of the following?

Would you please look over these solved cases?
>>> assay_value("O=C(Nc1ccc(F)cn1)c1ccc(CN2C(=O)c3ccc(Cl)cc3NC(=O)[C@H]2Cc2ccccn2)cc1")
"< 0.1 µM"
>>> assay_value("O=C(c1ccc(CN2C(=O)c3ccc(Cl)cc3NC(=O)[C@H]2Cc2ccccn2)cc1)c1cccn2ccnc12 [Example 34a]")
"0.1 to 0.999 µM"

For every item in the list below, what is its measured IC50?
1. O=C(c1ccccn1)c1ccc(CN2C(=O)c3ccc(Cl)cc3NC(=O)[C@H]2Cc2ccccn2)cc1Cl [Example 11g]
2. COc1cnc(NC(=O)c2ccc(CN3C(=O)c4ccc(Cl)cc4NC(=O)[C@H]3Cc3ccccn3)cc2C)cn1
3. COc1cc(CN2C(=O)c3ccc(Cl)cc3NC(=O)[C@H]2Cc2ccccn2)ccc1C(=O)Nc1ccc(C(F)(F)F)cn1

A)
["1 to 10 µM", "0.1 to 0.999 µM", "0.1 to 0.999 µM"]

For every item in the list below, what is its measured IC50?
1. Cn1cc(C(=O)c2ccc(CN3C(=O)c4ccc(Cl)cc4NC(=O)[C@H]3Cc3ccccn3)cc2)c2ncccc21 [Example 31a]
2. COc1cnc(NC(=O)c2ccc(CN3C(=O)c4ccc(Cl)cc4NC(=O)[C@H]3Cc3ccccn3)cc2Cl)cn1

A)
1: 0.1 to 0.999 µM; 2: 0.1 to 0.999 µM

For every item in the list below, what is its measured IC50?
1. COc1cnc(NC(=O)c2ccc(CN3C(=O)c4ccc(Cl)cc4NC(=O)[C@H]3Cc3ccccn3)cc2OC)cn1
2. Cc1cnc(NC(=O)c2ccc(CN3C(=O)c4ccc(Cl)cc4NC(=O)[C@H]3Cc3ccccn3)cc2C)cn1

A)
1: 0.1 to 0.999 µM; 2: 0.1 to 0.999 µM

For every item in the list below, what is its measured IC50?
1. Cn1cc(C(=O)[C@H]2CC[C@H](CN3C(=O)c4ccc(Cl)cc4NC(=O)[C@H]3Cc3ccccn3)CC2)c2ncccc21 [Example 33b]
2. Cc1cnc2c(c1)CCN2C(=O)c1ccc(CN2C(=O)c3ccc(Cl)cc3NC(=O)[C@H]2Cc2ccccn2)cc1Cl

A)
["0.1 to 0.999 µM", "< 0.1 µM"]
